Origin of the recorded values: PubChem BioAssay (NCI)

test: NCI Yeast Anticancer Drug Screen. Data for the CLN2oe strain (AID 163);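 also: 0% = growth of vehicle-only control cultures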; conditions: S. cerevisiae CLN2oe strain, at 1.2 µM, stronger effect = higher value
The panel holds about 79,000 compounds, 15% with a hit somewhere; the sample as a whole holds those more often.
propertyLabel: growth inhibition (%)
Give just the numeric value; % need not be written.

# example entries with known answers
| molecule | unitsLabel | growth inhibition |
| --- | --- | --- |
| COC(=O)/C(C#N)=C\NC(=S)C(N)=S | % | 21 |
| CN(C)CCNCCCNc1c2ccccc2nc2cccc([N+](=O)[O-])c12 | % | -2 |

growth inhibition measured on CC1=CC(=C(c2ccc(N)c(C)c2)c2ccc(N)c(C)c2)C=CC1=N = 19

growth inhibition measured on S=C(NCc1ccccn1)N/N=C/c1ccccn1 = 97

growth inhibition measured on COc1ccc(C(=O)/C=C\c2ccc(Cl)c(Cl)c2)cc1 = 12

growth inhibition measured on COc1ccc2cc(C(C)C(=O)N3CCOC3=O)ccc2c1 (stereo unspecified) = 11

----------
assay: NCI Yeast Anticancer Drug Screen. Data for the rad52 strain (AID 147);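 also: 0% = growth of vehicle-treated control cultures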; conditions: S. cerevisiae rad52 mutant growth inhibition; at 3.7 µM; stronger effect = higher value
About 79,000 compounds went through this panel and 15% of them were active in at least one assay; those are over-represented in the sample as a whole.
Listing: growth inhibition of selected compounds
Give just the numeric value; % need not be written.

growth inhibition measured on CSc1nc(-c2ccccc2)nc(=[N+]2CCOCC2)s1 = 52

growth inhibition measured on CN1C(=O)C(CC(=O)O)NC1=S (stereo unspecified) = 0

growth inhibition measured on O=C(Oc1ccc([N+](=O)[O-])cc1)c1ccc([N+](=O)[O-])cc1 = 7

growth inhibition measured on CCCNC(=O)OCc1c(COC(=O)NCCC)c(-c2ccc(Cl)c(Cl)c2)n2c1CCC2 = -7

growth inhibition measured on NNc1ccccc1-c1nc2ccccc2[nH]1 = 7

growth inhibition measured on COc1ccc(/C=C2\SC(=S)N(/C=C3\C(=O)N(c4ccccc4)N=C3C)C2=O)cc1OC = 8

----------
test: NCI Yeast Anticancer Drug Screen. Data for the mgt1 strain (AID 153); conditions: S. cerevisiae mgt1 mutant growth inhibition; at 33.0 µM; stronger effect = higher value
This is part of a sample that, as a whole, favours compounds with a hit. Of some 79,000 tested, about 15% had one in any assay. The source made the active and inactive calls. Rule as the data show it: active = growth inhibition above about 70%; inactive = the rest.
Listing: growth inhibition of selected molecules

# example entries with known answers
| molecule | growth inhibition |
| --- | --- |
| O=C(Nc1cccs1)c1ccccc1 | 5% (inactive) |
| COC1/C=C\C=C(/C)C(=O)NC2=CC(=O)C(=O)C(=C2O)CC(C)CC(OC)C(O)C(C)/C=C(\C)C1OC(N)=O (centres undefined) | 96% (active) |
| CC1(C)CC(=O)C(/C=N/c2nc(-c3ccc(Br)cc3)cs2)=C(O)C1 | 96% (active) |
| CC(C)C(=O)CC(Sc1ccc(N)cc1)c1ccccc1 (centres undefined) | 32% (inactive) |
| CC(C)C(c1ccccc1)c1ccccc1 | -6% (inactive) |

growth inhibition measured on CC(C)[Si]1(C(C)C)OCC2OC(n3cnc4c(N)ncnc43)C(N)C2O[Si](C(C)C)(C(C)C)O1 (centres undefined) = 98% (active)

growth inhibition measured on N#C/C(=C\NC(=S)Nc1ccc(S(N)(=O)=O)cc1)C(=O)c1ccc2ccccc2c1 = -12% (inactive)

growth inhibition measured on O=C(NO)c1coc2ccccc2c1=O = -5% (inactive)

growth inhibition measured on NC(N)=NS(=O)(=O)c1ccc(Nc2c3ccccc3nc3c(C(=O)NC(CO)(CO)CO)cccc23)cc1 = 1% (inactive)

growth inhibition measured on CCC1(O)C(=O)OCc2c1cc1n(c2=O)Cc2cc3c(N)cccc3nc2-1 (centres undefined) = -5% (inactive)
